Below is a list of entries, each paired with its recorded viability, T/C value.
# Tested on: 855422-203-R-J1-PDC complex spheroid growth
# assay protocol: Anticancer human tumor 855422-203-R-J1-PDC patient-derived bladder carcinoma cell line growth inhibition [AhR]
# run parameters: second compound 3.16 µM; first compound 0.0316 µM; hits give low values
Your answer should be a plain number; it is taken to be in %.

# annotated cases, reported viability, T/C shown
{"molecule": "CC[C@@]1(O)C(=O)OCc2c1cc1n(c2=O)Cc2cc3c(CN(C)C)c(O)ccc3nc2-1 + Cc1cncc(-c2nc(NCCc3c[nH]c4ccccc34)c3ncn(C(C)C)c3n2)c1", "display unit": "%", "viability, T/C": 33}
{"molecule": "Nc1ccn(C2OC(CO)C(O)C2(F)F)c(=O)n1 (configuration not stated) + Cc1cncc(-c2nc(NCCc3c[nH]c4ccccc34)c3ncn(C(C)C)c3n2)c1", "display unit": "%", "viability, T/C": 65.2}
{"molecule": "NS(=O)(=O)OCC1CC(n2ccc3c(NC4CCc5ccccc54)ncnc32)CC1O (configuration not stated) + Cc1ccccc1N=Nc1ccc(NC(=O)c2ccnn2C)c(C)c1", "display unit": "%", "viability, T/C": 105}
{"molecule": "Nc1ccn(C2OC(CO)C(O)C2(F)F)c(=O)n1 (configuration not stated) + CC(CO)NC(=O)c1cc(-c2ccc(Cl)cc2)nn(-c2cnn(C)c2)c1=O", "display unit": "%", "viability, T/C": 89.9}
{"molecule": "CC1COCCN1c1cc(C2(S(C)(=N)=O)CC2)nc(-c2ccnc3[nH]ccc23)n1 (configuration not stated) + Cc1cncc(-c2nc(NCCc3c[nH]c4ccccc34)c3ncn(C(C)C)c3n2)c1", "display unit": "%", "viability, T/C": 69}

input: Query: viability, T/C; subject: COc1cccc2c1C(=O)c1c(O)c3c(c(O)c1C2=O)CC(O)(C(=O)CO)CC3OC1CC(N)C(O)C(C)O1 (configuration not stated) + Cc1ccccc1N=Nc1ccc(NC(=O)c2ccnn2C)c(C)c1
output: 39.9

input: Query: viability, T/C; subject: Nc1ncn(C2CC(O)C(CO)O2)c(=O)n1 (configuration not stated) + Cc1ccccc1N=Nc1ccc(NC(=O)c2ccnn2C)c(C)c1
output: 94.9

###

# Tested on: 855422-203-R-J1-PDC complex spheroid growth
# assay protocol: Anticancer human tumor 855422-203-R-J1-PDC cell line growth inhibition [AhR];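 note: spheroids exposed to agents for seven days before readout; percent of DMSO vehicle control luminescence viability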
# run parameters: second compound 0.316 µM; first compound 0.001 µM; hits give low values
readout kind: viability, T/C (%)
Your answer should be a plain number; it is taken to be in %.

# annotated cases, reported viability, T/C shown
{"compound": "CC[C@@]1(O)C(=O)OCc2c1cc1n(c2=O)Cc2cc3c(CN(C)C)c(O)ccc3nc2-1 + Cc1ccccc1N=Nc1ccc(NC(=O)c2ccnn2C)c(C)c1", "experimental system": "855422-203-R-J1-PDC complex spheroid growth", "readout kind": "viability, T/C", "reported": 101}
{"compound": "CC[C@@]1(O)C(=O)OCc2c1cc1n(c2=O)Cc2cc3c(CN(C)C)c(O)ccc3nc2-1 + CC(CO)NC(=O)c1cc(-c2ccc(Cl)cc2)nn(-c2cnn(C)c2)c1=O", "experimental system": "855422-203-R-J1-PDC complex spheroid growth", "readout kind": "viability, T/C", "reported": 100}
{"compound": "Cn1ncnc1C1c2n[nH]c(=O)c3cc(F)cc(c23)NC1c1ccc(F)cc1 (stereo unspecified) + CC(CO)NC(=O)c1cc(-c2ccc(Cl)cc2)nn(-c2cnn(C)c2)c1=O", "experimental system": "855422-203-R-J1-PDC complex spheroid growth", "readout kind": "viability, T/C", "reported": 104}
{"compound": "Cn1ncnc1C1c2n[nH]c(=O)c3cc(F)cc(c23)NC1c1ccc(F)cc1 (stereo unspecified) + Cc1cncc(-c2nc(NCCc3c[nH]c4ccccc34)c3ncn(C(C)C)c3n2)c1", "experimental system": "855422-203-R-J1-PDC complex spheroid growth", "readout kind": "viability, T/C", "reported": 80.8}

input: Query: viability, T/C; subject: Cn1ncnc1C1c2n[nH]c(=O)c3cc(F)cc(c23)NC1c1ccc(F)cc1 (stereo unspecified) + Cc1ccccc1N=Nc1ccc(NC(=O)c2ccnn2C)c(C)c1
output: 96.4

input: Query: viability, T/C; subject: CC[C@@]1(O)C(=O)OCc2c1cc1n(c2=O)Cc2cc3c(CN(C)C)c(O)ccc3nc2-1 + Cc1cncc(-c2nc(NCCc3c[nH]c4ccccc34)c3ncn(C(C)C)c3n2)c1
output: 87.1

Source of measurements: PubChem BioAssay AID1919005
